Origin of values: patent US6169181A

target: HIV-1 protease (Human immunodeficiency virus type 1 group M subtype B, UniProt P04585); experiment: biochemical; details: Table I; Dose 10.000 μM
EXPERIMENTAL_ENDPOINT: PROTEASE % INHIB. (%)
// note: answer is a bare numeric in %

Task: Any idea what PROTEASE % INHIB. was measured for CC[C@H](Cc1ccccc1)c1cc(O)c(C(c2cccc(NS(=O)(=O)c3nccn3C)c2)C2CC2)c(=O)o1 (single isomer, unassigned) [Example 144] ?
Result: 98.12

Task: Again, but for CCCC1(CCC)CC(O)=C(C(CC)c2cccc(NS(=O)(=O)c3cccc4cccnc34)c2)C(=O)O1 (single isomer, unassigned) [Example 54]
Result: 87.77

Task: Again, but for CC[C@H](Cc1ccccc1)c1cc(O)c(C(c2cccc(NS(=O)(=O)c3ccc(C#N)cc3)c2)C2CC2)c(=O)o1 (single isomer, unassigned) [Example 149]
Result: 97.12

Task: Again, but for CCCC1(CCC)CC(O)=C(C(CC)c2cccc(NS(=O)(=O)c3cn(C)cn3)c2)C(=O)O1 (single isomer, unassigned) [Example 55]
Result: 98.33

Task: Again, but for CC[C@@H](Cc1ccccc1)c1cc(O)c(C(c2cccc(NS(=O)(=O)c3cn(C)cn3)c2)C2CC2)c(=O)o1 (single isomer, unassigned) [Example 140]
Result: 112.53

Task: Again, but for CC[C@H](Cc1ccccc1)c1cc(O)c(C(c2cccc(NS(=O)(=O)c3ccccn3)c2)C2CC2)c(=O)o1 (single isomer, unassigned) [Example 142]
Result: 110.58

Task: Again, but for CCCC1(CCC)CC(O)=C(C(c2cccc(NS(=O)(=O)c3cn(C)cn3)c2)C2CC2)C(=O)O1 (single isomer, unassigned) [Example 57]
Result: 104.74
